Source: PubChem BioAssay AID330

Tested on: P388 leukemia ip, CD2F1 mice, survival T/C
Experiment: NCI In Vivo Anticancer Drug Screen. Data for tumor model P388 Leukemia (intraperitoneal) in CD2F1 (CDF1) mice
Conditions: endpoint: median survival time; dose: 12.5 mg/kg/injection; schedule: Q01DX009 (ip); vehicle: distilled water + Tween-80; higher = longer survival
Toxic doses and inconclusive results are not listed. Peptide text beside a SMILES is read from it. * marks the point of attachment. Trt = c1ccc(C(c2ccccc2)(c2ccccc2)*)cc1; Cbz = O=C(OCc1ccccc1)*

molecule	T/C
COC(=O)C1=C(C(=O)OC)C2OC1C(COC(=O)NC1CCCCC1)=C2COC(=O)NC1CCCCC1	89 % of control
COC(=O)C(CSC(c1ccccc1)(c1ccccc1)c1ccccc1)NC(=O)C(CC(N)=O)NC(=O)OCc1ccccc1 (stereo not drawn) (Cbz-Asn-Cys(Trt)-OMe; configuration not given here)	92 % of control
N#Cc1ccc(NN=NCCS(=O)CCCl)cc1 (stereo not given)	111 % of control
CC(=O)OCc1ccncc1	95 % of control
O=C(Nc1ccccc1)Nc1nncs1	104 % of control
